- TESTED TARGET: Bevacizumab (Homo sapiens, UniProt P01857)
- Construct: fused on or other part: humanised anti-VEGF-A VH domain N-terminal of the gamma-1 constant region (engineered, no UniProt entry)
- ASSAY PROTOCOL: Microtiter plate chromatography of resins, Bevacizumab whole IgG (bound, yield, selectivity)
- Format: binding, humanized
- CONDITION CONTEXT: mass of whole IgG Bevacizumab eluted / mass injected
MEASURE: Bevacizumab IgG Yield (%)

COc1ccc(NC(=O)c2cc(-c3ccco3)n(C)n2)cc1C(=O)N(C)CCCN: 81%

// query Bevacizumab IgG Yield (%) value for entry COc1ccc(C(=O)Nc2nn(C)c3ccccc23)cc1C(=O)NCCCN
// result 100%

// query Bevacizumab IgG Yield (%) value for entry COc1ccc(NC(=O)c2cc(-c3ccsc3)n(C)n2)cc1C(=O)NCCCN
// result 96%

// query Bevacizumab IgG Yield (%) value for entry Cc1c(NC(=O)c2cc(-c3cccs3)n(C)n2)cccc1C(=O)NCCCN
// result 91%

// query Bevacizumab IgG Yield (%) value for entry Cn1nc(C(=O)Nc2ccc(C(=O)NCCCN)cc2)cc1-c1ccco1
// result 95%

// query Bevacizumab IgG Yield (%) value for entry COc1ccc(NC(=O)c2cc(-c3ccco3)ccn2)cc1C(=O)NCCCN
// result 99%

// query Bevacizumab IgG Yield (%) value for entry COc1ccc(NC(=O)c2c[nH]c3ccccc23)cc1C(=O)NCCCN
// result 94%

// query Bevacizumab IgG Yield (%) value for entry COc1ccc(NC(=O)c2nn(C)c3ccccc23)cc1C(=O)NCCCN
// result 94%

====

Examples of compounds with documented Kd follow.
- TESTED TARGET: UniProt:P01857
State the answer as a number, implicitly in µM.

Solved cases (2 shown):
COc1ccc(NC(=O)c2cncc(-c3ccco3)c2)cc1C(=O)NCCCN [Ligand L13]: 411
C#Cc1cncc(C(=O)Nc2ccc(OC)c(C(=O)NCCCN)c2)c1 [Ligand L24]: 596

Kindly consider the entry below.
// query Query the reported Kd for UniProt:P01857; item: COc1ccc(NC(=O)c2cncc(-c3ccoc3)c2)cc1C(=O)NCCCN [Ligand L22]
// result 373

====

- Test system: Palivizumab
- ASSAY PROTOCOL: Microtiter plate chromatography of resins, Palivizumab (bound, yield)
- Type: binding, humanized
Examples of molecules with documented Palivizumab Yield (%) follow.
State the answer as a number, implicitly in %.

Solved cases (4 shown):
COc1ccc(NC(=O)c2cc(-c3ccccc3)n(C)n2)cc1C(=O)NCCCN [Ligand L15]: 90
COc1ccc(-c2noc(C(=O)Nc3ccc(OC)c(C(=O)NCCCN)c3)n2)cc1 [Ligand L54]: 84
COc1ccc(NC(=O)c2n[nH]c3ccc(Cl)cc23)cc1C(=O)NCCCN [Ligand L4]: 97
COc1ccc(NC(=O)c2cc(-c3cccn3C)n(C)n2)cc1C(=O)NCCCN [Ligand L16]: 90

Kindly consider the entry below.
// query Palivizumab Yield (%) value for entry Cn1nc(C(=O)Nc2cccc(C(=O)NCCCN)c2)cc1-c1ccco1 [Ligand L17]
// result 70

====

- TESTED TARGET: Bevacizumab (Homo sapiens)
- Construct: fused on or other part: humanised anti-VEGF-A VH domain N-terminal of the gamma-1 constant region (engineered, no UniProt entry)
- ASSAY PROTOCOL: Microtiter plate chromatography of resins, Bevacizumab whole IgG (bound, yield, selectivity)
- Type: binding, humanized
- CONDITION CONTEXT: mass of whole IgG Bevacizumab eluted / mass injected
MEASURE: Bevacizumab IgG Yield (%)

// query Bevacizumab IgG Yield (%) value for entry COc1ccc(NC(=O)c2occ3ccccc23)cc1C(=O)NCCCN [Ligand L32]
// result 87%

====

- Tested on: human poly-IgG (h-poly-IgG)
- ASSAY PROTOCOL: Microtiter plate chromatography of resins, human poly-IgG (bound, yield)
- Type: binding
Mark 1 (yes) for h-poly-IgG Bound (%) under 80%, 0 (no) if at or over.

Study these solved cases before continuing.
COc1ccc(NC(=O)c2nnc3ccccn23)cc1C(=O)NCCCN: 0 (no)
COc1ccc(NC(=O)c2cc(-c3ccco3)ccn2)cc1C(=O)NCCCN: 0 (no)
COc1ccc(NC(=O)c2cncc(-c3cc4ccccc4s3)c2)cc1C(=O)NCCCN: 1 (yes)
COc1ccc(NC(=O)c2cn3ncccc3n2)cc1C(=O)NCCCN: 0 (no)

// query Record COc1ccc(NC(=O)c2n[nH]c3ccc(Cl)cc23)cc1C(=O)NCCCN : is its h-poly-IgG Bound (%) strictly below 80%?
// result 0 (no)

// query Record COc1ccc(NC(=O)c2nc3ccccc3[nH]2)cc1C(=O)NCCCN : is its h-poly-IgG Bound (%) strictly below 80%?
// result 1 (yes)

====

- Tested on: Tocilizumab
- ASSAY PROTOCOL: Microtiter plate chromatography of resins, Tocilizumab (bound, yield)
- Format: binding, humanized
- CONDITION CONTEXT: fraction of injected protein bound to resin
Entry flag: yes if Tocilizumab Bound (%) reaches 90%; no if it does not.

Study these solved cases before continuing.
COc1ccc(NC(=O)c2cn3ccsc3n2)cc1C(=O)NCCCNC(=O)CCCCCN [Ligand L75]: yes
NCCCNC(=O)c1cccc(C(=O)Nc2ncc(-c3ccccc3)s2)c1 [Ligand L74]: yes
COc1ccc(NC(=O)c2cn3ccsc3n2)cc1C(=O)NCCCCCC(=O)NCCOCCOCCN [Ligand L76]: yes
Cn1nc(NC(=O)c2cccc(C(=O)NCCCN)c2)c2ccccc21 [Ligand L71]: no

// query Say whether COc1ccc(NC(=O)c2cn3ccsc3n2)cc1C(=O)NCCOCCOCC(=O)NCCOCCOCC(=O)NCCCN [Ligand L66] shows Tocilizumab Bound (%) of 90% or more.
// result no

// query Say whether NCCCNC(=O)c1cccc(C(=O)Nc2nnc(-c3ccco3)s2)c1 [Ligand L70] shows Tocilizumab Bound (%) of 90% or more.
// result yes

// query Say whether COc1ccc(NC(=O)c2cc(-c3ccco3)n(C)n2)cc1C(=O)NCCOCCOCC(=O)NCCOCCOCC(=O)NCCCN [Ligand L65] shows Tocilizumab Bound (%) of 90% or more.
// result no

====

- Test system: host cell proteins (HCP)
- ASSAY PROTOCOL: Microtiter plate chromatography of resins, host cell proteins (bound)
- Assay type: binding, CHO
- CONDITION CONTEXT: host cell proteins
Entry flag: TRUE if HCP Bound (%) reaches 40%; FALSE if it does not.

COc1ccc(NC(=O)c2c[nH]c3ccccc23)cc1C(=O)NCCCN: TRUE
COc1ccc(NC(=O)c2cc3ncccn3n2)cc1C(=O)NCCCN: FALSE

// query Say whether COc1ccc(NC(=O)c2cn3ccsc3n2)cc1C(=O)NCCCC[C@H](NC(=O)c1cc(NC(=O)c2cn3ccsc3n2)ccc1OC)C(=O)NCCCN shows HCP Bound (%) of 40% or more.
// result FALSE

// query Say whether COc1ccc(NC(=O)c2cn3ncccc3n2)cc1C(=O)NCCCN shows HCP Bound (%) of 40% or more.
// result FALSE

// query Say whether COc1ccc(NC(=O)c2nnc3ccccn23)cc1C(=O)NCCCN shows HCP Bound (%) of 40% or more.
// result FALSE

// query Say whether Cn1nc(C(=O)Nc2cccc(C(=O)NCCCN)c2)cc1-c1ccco1 shows HCP Bound (%) of 40% or more.
// result FALSE

// query Say whether COc1ccc(NC(=O)c2cncc(-c3ccoc3)c2)cc1C(=O)NCCCN shows HCP Bound (%) of 40% or more.
// result FALSE

// query Say whether COc1ccc(NC(=O)c2cc(-c3ccsc3)n(C)n2)cc1C(=O)NCCCN shows HCP Bound (%) of 40% or more.
// result TRUE

// query Say whether NCCCNC(=O)c1cccc(C(=O)Nc2cc(-c3ccco3)[nH]n2)c1 shows HCP Bound (%) of 40% or more.
// result TRUE

// query Say whether Cc1c(NC(=O)c2cc(-c3cccs3)n(C)n2)cccc1C(=O)NCCCN shows HCP Bound (%) of 40% or more.
// result TRUE

// query Say whether COc1ccc(NC(=O)c2cn3ccsc3n2)cc1C(=O)NCCCNC(=O)CC[C@H](N)C(=O)NCCCNC(=O)c1cc(NC(=O)c2cn3ccsc3n2)ccc1OC shows HCP Bound (%) of 40% or more.
// result FALSE

// query Say whether Cn1nc(C(=O)Nc2ccc(C(=O)NCCCN)cc2)cc1-c1ccco1 shows HCP Bound (%) of 40% or more.
// result TRUE

// query Say whether Cn1nc(C(=O)Nc2nc(C(=O)NCCCN)cs2)cc1-c1cccs1 shows HCP Bound (%) of 40% or more.
// result TRUE

// query Say whether COc1ccc(NC(=O)c2cc(-c3ccco3)on2)cc1C(=O)NCCCN shows HCP Bound (%) of 40% or more.
// result TRUE

// query Say whether COc1ccc(NC(=O)c2cc(-c3cccs3)n(C)n2)cc1C(=O)NCCCN shows HCP Bound (%) of 40% or more.
// result TRUE
